# setup.conditions: buffer; pH 7.4; 200.0 µM

{"compound": "O=C(O)CCCC(=O)Nc1ccc2c(c1)oc1ccccc12", "solubility kinetic": "> 44.6 µg/mL"}
{"compound": "CCOCCCNC(=O)C1CC(=O)N(CCc2ccc(C)cc2)C1 (stereo not drawn)", "solubility kinetic": "> 49.9 µg/mL"}
{"compound": "Cc1ccc(NC(=O)CNC(=O)c2ccco2)cc1", "solubility kinetic": "> 38.7 µg/mL"}
{"compound": "CN(Cc1ccccc1)C(=S)NC(=O)c1cccs1", "solubility kinetic": "> 43.6 µg/mL"}
{"compound": "COC(=O)c1cccc(NC(=O)Nc2ccc(Cl)cc2Cl)c1", "solubility kinetic": "< 0.4 µg/mL"}
{"compound": "CCOc1ccc(/C=C(\\C(=O)O)c2ccc(S(=O)(=O)N3CCCCC3)s2)cc1OC", "solubility kinetic": "> 67.7 µg/mL"}
{"compound": "O=C(COC(=O)c1ccc([N+](=O)[O-])o1)NC12CC3CC(CC(C3)C1)C2", "solubility kinetic": "> 52.3 µg/mL"}
{"compound": "COc1ccccc1NC(=O)C(C)N(C)CC(=O)Nc1cccc2ccccc12.Cl (stereo not drawn)", "solubility kinetic": "> 64.2 µg/mL"}
{"compound": "C=CCn1c(O)c(C(C)=NC(C)c2ccccc2)c(=O)[nH]c1=O (stereo not drawn)", "solubility kinetic": "> 47 µg/mL"}
{"compound": "CSCC[C@H](NC(=O)c1ccco1)c1nnc2ccccn12", "solubility kinetic": "> 47.5 µg/mL"}
{"compound": "C=CCN1CCN(C(=O)c2c(-c3ccccc3)noc2C)CC1", "solubility kinetic": "> 46.7 µg/mL"}
{"compound": "CC1CCC(NC(=O)CSc2nncn2C)CC1 (stereo not drawn)", "solubility kinetic": "> 40.3 µg/mL"}
{"compound": "Cc1cccc(Nc2ccccc2C(=O)O)c1C", "solubility kinetic": "> 36.2 µg/mL"}
{"compound": "CC(=O)c1ccc(S(=O)(=O)N2CCC3(CC2)OCCO3)cc1", "solubility kinetic": "> 48.8 µg/mL"}
{"compound": "CCOc1ccc(N2CC(C(=O)N3CCCCCC3)CC2=O)cc1 (stereo not drawn)", "solubility kinetic": "> 49.6 µg/mL"}
{"compound": "CCOc1ccc(C(c2c(O)nc(SC)[nH]c2=O)c2c(O)nc(SC)[nH]c2=O)cc1", "solubility kinetic": "> 67.3 µg/mL"}
{"compound": "COc1ccc(-c2c(C#N)sc(C(N)=O)c2-c2ccc(OC)cc2)cc1", "solubility kinetic": "< 0.4 µg/mL"}
{"compound": "COc1ccccc1CCC(=O)NNC(=O)c1ccccc1", "solubility kinetic": "> 44.8 µg/mL"}

* * *

# setup.conditions: buffer; pH 7.4; 200.0 µM
This listing pairs compounds with measured solubility kinetic.

{"compound": "CN(C)c1ccc(C=NCC2COc3ccccc3O2)cc1 (stereo not drawn)", "solubility kinetic": "> 44.5 µg/mL"}
{"compound": "Cc1ccc(SCC(=O)NCc2ccccc2)cc1", "solubility kinetic": "> 40.7 µg/mL"}
{"compound": "COc1cc(S(=O)(=O)N2CCn3cccc3C2C)ccc1NC(C)=O (stereo not drawn)", "solubility kinetic": "> 54.5 µg/mL"}
{"compound": "O=C1Nc2ccccc2C1(O)c1ccccc1O (stereo not drawn)", "solubility kinetic": "> 36.2 µg/mL"}
{"compound": "Cc1sc2nc(C)n(/N=C/N(C)C)c(=O)c2c1C", "solubility kinetic": "> 39.7 µg/mL"}
{"compound": "COC(=O)c1ccccc1CSc1nsc(C)c1C#N", "solubility kinetic": "< 0.3 µg/mL"}
{"compound": "Cc1cc(C)c(C(N)=O)c(Nc2ccc(F)cc2)n1", "solubility kinetic": "> 38.9 µg/mL"}
{"compound": "COc1ccc(S(=O)(=O)NCc2csc(C)n2)cc1OC", "solubility kinetic": "> 49.3 µg/mL"}
{"compound": "Cc1noc(C)c1C(=O)N1CCC(C(=O)c2ccc(F)cc2F)CC1", "solubility kinetic": "> 52.3 µg/mL"}
{"compound": "CC1CC=C(c2ccccc2)C(=S)N1 (stereo not drawn)", "solubility kinetic": "> 30.5 µg/mL"}
{"compound": "Cc1[nH]ccc(=O)c1Cc1c(Cl)cccc1Cl", "solubility kinetic": "> 40.2 µg/mL"}
{"compound": "O=CNCc1nc2ccccc2n1CCCc1ccccc1", "solubility kinetic": "> 44 µg/mL"}
{"compound": "CCOc1ccccc1C(=O)NC(C(=O)NCCc1ccccn1)C(C)C (stereo not drawn)", "solubility kinetic": "> 55.4 µg/mL"}
{"compound": "Clc1nc(-c2ccccc2)ncc1Oc1ccccc1", "solubility kinetic": "< 0.3 µg/mL"}
{"compound": "Cc1ccc(C(=O)Cn2cncn2)cc1.Cl", "solubility kinetic": "> 35.7 µg/mL"}
{"compound": "O=S(=O)(NC1CC1)c1ccc(Cl)cc1", "solubility kinetic": "> 34.8 µg/mL"}
{"compound": "CCc1cc2cccc(C)c2nc1SCC(=O)NC1CCCC1", "solubility kinetic": "< 0.4 µg/mL"}
{"compound": "Nc1c(Br)cc(Br)cc1CNC1CCC(O)CC1 (stereo not drawn)", "solubility kinetic": "> 56.7 µg/mL"}

* * *

# setup.conditions: buffer; pH 7.4; 200.0 µM
This listing pairs compounds with measured solubility kinetic.

{"compound": "O=C(Nc1cccc2ncccc12)C(c1ccccc1)c1ccccc1", "solubility kinetic": "< 0.4 µg/mL"}
{"compound": "Cc1cc(=O)[nH]c(N2CCN(C(=O)c3ccco3)CC2)n1", "solubility kinetic": "> 43.2 µg/mL"}
{"compound": "CCc1cccc2c(C(=O)C(NCCOC)c3ccccc3)c[nH]c12 (centres undefined)", "solubility kinetic": "> 50.5 µg/mL"}
{"compound": "Cc1ccc(C(C)C)c(OCC(=O)OCC(=O)NC2CC2)c1", "solubility kinetic": "> 45.8 µg/mL"}

* * *

# setup.conditions: buffer; pH 7.4; 200.0 µM
parameter.measured: solubility kinetic

{"molecule": "CCOC(=O)CN1N=C(c2ccc(C)cc2)CCC1=O", "observed.result": "> 41.1 µg/mL"}
{"molecule": "CC(C)[N+](C)(CCOC(=O)C1c2ccccc2Oc2ccccc21)C(C)C.[Br-]", "observed.result": "> 67.3 µg/mL"}
{"molecule": "COc1ccccc1OC(C)C(=O)N1CC(=O)Nc2ccccc21 (stereo not given)", "observed.result": "> 49 µg/mL"}
{"molecule": "Cc1csc2c(=O)n(CCO)c(=O)[nH]c12", "observed.result": "> 33.9 µg/mL"}
{"molecule": "Nc1nc(NCc2ccco2)nc(N2CCOCC2)c1[N+](=O)[O-]", "observed.result": "> 48 µg/mL"}
{"molecule": "Cc1cn2c(=O)c(C(=O)N3CCN(c4ccccc4F)CC3)cnc2s1", "observed.result": "> 55.9 µg/mL"}
{"molecule": "COc1cccc(NC(=O)CN(C)CC(=O)NCC(=O)Nc2ccc(F)cc2)c1", "observed.result": "> 60.4 µg/mL"}
{"molecule": "CCCN1CCC(NC(=S)Nc2ccc([N+](=O)[O-])cc2)CC1", "observed.result": "> 48.4 µg/mL"}
{"molecule": "O=C(COC(=O)c1cccnc1Cl)NCCc1ccccc1", "observed.result": "> 47.8 µg/mL"}
{"molecule": "CCOc1ccc(NC(=O)N[C@@H](Cc2ccccc2)C(=O)O)cc1", "observed.result": "> 49.3 µg/mL"}

* * *

This listing pairs compounds with measured solubility kinetic.
# setup.conditions: buffer; pH 7.4; 200.0 µM
parameter.measured: solubility kinetic

{"compound": "CC(=O)c1sc(-c2ccccc2)cc1NS(=O)(=O)c1ccccc1", "observed.result": "< 0.8 µg/mL"}
{"compound": "COC(=O)[C@H](Cc1ccccc1)NC(=O)NCCc1ccccc1F", "observed.result": "> 51.7 µg/mL"}
{"compound": "On1c(-c2ccccc2Cl)nc2ncccc21", "observed.result": "> 36.9 µg/mL"}
{"compound": "O=[N+]([O-])c1ccc(NCc2ccncc2)cc1", "observed.result": "> 34.4 µg/mL"}
{"compound": "Oc1ccccc1Oc1ncc(Br)c(Cl)n1", "observed.result": "> 45.2 µg/mL"}
{"compound": "COc1ccc(S(=O)(=O)N2CCN(C(=O)CC(C)C)CC2)cc1", "observed.result": "> 51.1 µg/mL"}
{"compound": "OCC(O)CN1CCN(c2ccccc2)CC1 (stereo unspecified)", "observed.result": "> 35.4 µg/mL"}
{"compound": "COc1ccccc1CC(=O)Nc1ccon1", "observed.result": "> 34.8 µg/mL"}
{"compound": "O=c1ccc2ccccc2n1Cc1cccc(F)c1", "observed.result": "> 38 µg/mL"}
{"compound": "O=C(O)c1cc2c(cc1NC(=O)C1CCCC1)OCCO2", "observed.result": "> 43.7 µg/mL"}
{"compound": "CC(C)NC(=O)NC(=O)COC(=O)C1(C)CC1(Cl)Cl (stereo unspecified)", "observed.result": "> 46.7 µg/mL"}
{"compound": "COc1ccccc1NC(=O)c1c[nH]c2ccccc12", "observed.result": "> 39.9 µg/mL"}
{"compound": "COc1ccc(-c2cc(C(=O)Nc3cccc(O)c3)no2)cc1", "observed.result": "< 0.3 µg/mL"}
{"compound": "C=CCOc1ccccc1NC(=O)CN1C(=O)CNC1=O", "observed.result": "> 43.4 µg/mL"}
{"compound": "CCCCN(C(=O)C1=NN(c2ccccc2)C(=O)CC1)c1c(N)n(CCC)c(=O)[nH]c1=O", "observed.result": "> 66.1 µg/mL"}
{"compound": "CCOc1ccccc1Nc1ccc2nonc2c1[N+](=O)[O-]", "observed.result": "< 0.2 µg/mL"}
